Each recorded value in this set is attributed to patent US20220396632A1.

Target: PSGL-1(ECD)-hFc1 S116A protein (Sino Biological) (human)
Sequence (chain, as listed by the source S116A S116A): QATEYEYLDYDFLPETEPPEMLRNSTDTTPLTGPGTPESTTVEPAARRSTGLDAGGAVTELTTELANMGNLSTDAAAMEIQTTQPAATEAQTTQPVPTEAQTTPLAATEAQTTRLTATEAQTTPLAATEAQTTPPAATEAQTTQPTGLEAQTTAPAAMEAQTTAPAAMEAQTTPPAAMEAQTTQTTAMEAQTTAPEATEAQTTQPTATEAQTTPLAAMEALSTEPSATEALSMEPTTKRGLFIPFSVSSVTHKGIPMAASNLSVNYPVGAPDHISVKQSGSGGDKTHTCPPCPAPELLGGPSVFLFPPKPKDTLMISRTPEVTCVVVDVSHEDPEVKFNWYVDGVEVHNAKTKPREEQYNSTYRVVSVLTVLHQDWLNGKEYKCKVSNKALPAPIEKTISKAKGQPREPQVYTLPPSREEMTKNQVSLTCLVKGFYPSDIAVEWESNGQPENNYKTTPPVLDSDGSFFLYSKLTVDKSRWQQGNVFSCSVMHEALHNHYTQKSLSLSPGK
Assay: ELISA, plate-bound peptide or protein
Overview of recorded EC50 for various binders
Field: numeric (nM). Do not append units.

Request: Recorded EC50 of 18F17 (antibody, V domains shown, Non-functional anti-PSGL-1 mAb (Verseau); only variable domains given) VH: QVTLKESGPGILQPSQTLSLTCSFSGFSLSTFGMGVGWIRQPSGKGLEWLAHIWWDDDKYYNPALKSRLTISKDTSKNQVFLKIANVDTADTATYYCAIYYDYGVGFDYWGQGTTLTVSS VL: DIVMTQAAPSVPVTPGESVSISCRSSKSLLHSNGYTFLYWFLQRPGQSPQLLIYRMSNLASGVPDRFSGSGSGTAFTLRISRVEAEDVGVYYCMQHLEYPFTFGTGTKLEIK , please.
Result: 0.54

Further cases:
Request: Recorded EC50 of 19L04 (antibody, IgG4, V domains shown, From mouse immunisation; only variable domains given) VH: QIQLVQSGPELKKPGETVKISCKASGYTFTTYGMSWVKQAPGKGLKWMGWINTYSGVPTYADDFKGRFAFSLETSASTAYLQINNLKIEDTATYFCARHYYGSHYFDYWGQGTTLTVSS VL: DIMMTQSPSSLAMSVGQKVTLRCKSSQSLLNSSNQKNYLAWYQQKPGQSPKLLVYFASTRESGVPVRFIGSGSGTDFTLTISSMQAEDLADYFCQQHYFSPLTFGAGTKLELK , please.
Result: 0.98

Request: Same for 19N05 (antibody, V domains shown, From mouse immunisation; only variable domains given) VH: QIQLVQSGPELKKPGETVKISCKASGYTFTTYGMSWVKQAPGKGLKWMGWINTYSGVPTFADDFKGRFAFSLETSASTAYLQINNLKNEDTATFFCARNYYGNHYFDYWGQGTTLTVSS VL: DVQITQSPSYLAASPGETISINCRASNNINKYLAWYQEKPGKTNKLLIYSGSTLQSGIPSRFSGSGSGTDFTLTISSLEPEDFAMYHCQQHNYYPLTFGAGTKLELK
Result: 0.55

Request: Same for 15A7 (antibody, V domains shown, Control mAb, recombinant; also called h15A7; 15A17) VH: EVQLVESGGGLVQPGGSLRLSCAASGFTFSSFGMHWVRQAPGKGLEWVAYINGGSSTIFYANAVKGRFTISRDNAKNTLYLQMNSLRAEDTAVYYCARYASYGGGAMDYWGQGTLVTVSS VL: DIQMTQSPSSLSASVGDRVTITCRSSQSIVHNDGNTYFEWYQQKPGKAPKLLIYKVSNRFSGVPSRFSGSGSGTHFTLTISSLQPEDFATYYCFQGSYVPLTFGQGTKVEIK
Result: 0.25
